Target system: mushroom tyrosinase (Agaricus bisporus, UniProt C7FF04)
Sequence (C7FF04 1-392): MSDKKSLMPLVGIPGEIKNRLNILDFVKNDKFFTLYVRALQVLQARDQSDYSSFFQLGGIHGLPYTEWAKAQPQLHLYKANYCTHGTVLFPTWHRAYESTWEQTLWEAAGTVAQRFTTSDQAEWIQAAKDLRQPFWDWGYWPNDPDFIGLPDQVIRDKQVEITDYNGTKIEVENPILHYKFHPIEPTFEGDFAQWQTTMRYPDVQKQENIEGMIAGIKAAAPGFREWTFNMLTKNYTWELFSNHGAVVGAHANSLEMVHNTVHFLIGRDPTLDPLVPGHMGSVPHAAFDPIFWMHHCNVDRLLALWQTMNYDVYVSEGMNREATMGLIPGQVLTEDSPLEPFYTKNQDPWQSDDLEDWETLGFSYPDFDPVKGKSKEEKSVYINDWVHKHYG
Assay procedure: fluorescence-based tyrosinase assay with substrate PAP-AMC (monophenolase activity)
Observation type: pKi
Please report pKi as the negative decimal logarithm of the molar concentration, giving only the number.

Input: Answer with reported pKi of Oc1c(I)cc(Cl)c2cccnc12
Output: 3.44

Input: Answer with reported pKi of O=[N+]([O-])c1ccc(O)c2ncccc12
Output: 6.05
